Experiment: in vivo
Settings: Sprague-Dawley, rat, in vivo, po, 60 g/kg
Protocol: The quality control (QC) and plasma samples were analyzed by an Agilent 6470 triple quadrupole LC–MS system (Agilent Technologies, Inc., Santa Clara, CA, USA), which consists of an Agilent 1290 Infinity II system connected to a triple quadrupole MS analyzer with an Agilent Jet Stream technologies electrospray ionization (ESI) interface. […] The plasma concentrations were expressed as arithmetic mean ± standard deviation (SD). […]
# maps each entry to its log10 Cmax
RECORDED ENDPOINT: log10 Cmax (log10 of the value in ng/mL)

# COMPOUND, log10 Cmax
data = [
    ("COc1cc2ccc(=O)oc2cc1O", 0.52),
    ("Cc1cc(O)c2c(c1)C(=O)c1cccc(O)c1C2=O", 1.58),
    ("Cc1cc(O)c2c(c1)C(=O)c1cc(O)cc(O)c1C2=O", 0.59),
    ("O=C(O)c1cc(O)c2c(c1)C(=O)c1cccc(O)c1C2=O", 3.25),
    ("COc1cc(O)c2c(c1)C(=O)c1cc(C)cc(O)c1C2=O", 1.00),
    ("O=C1c2cccc(O)c2C(=O)c2c(O)cc(CO)cc21", 1.56),
    ("COC(=O)C1=CO[C@@H](O[C@@H]2O[C@H](CO)[C@@H](O)[C@H](O)[C@H]2O)[C@@H]2C(CO)=CC[C@H]12 [Geniposide]", 3.27),
]

###

Experiment: Plasma pharmacokinetics after oral administration of YCHT in control (normal) rats, UHPLC-MS/MS
Assay type: in vivo, Sprague-Dawley rats
Conditions: Sprague-Dawley, rat, in vivo; control rats, oral YCHT 60 g/kg, plasma, n = 6; read-out: Tmax
// reported Tmax for each item listed
RECORDED ENDPOINT: Tmax

# MOLECULE, RECORDED MEASUREMENT
records = [
    ("O=C1c2cccc(O)c2C(=O)c2c(O)cc(CO)cc21", "32.4 min"),
    ("Cc1cc(O)c2c(c1)C(=O)c1cc(O)cc(O)c1C2=O", "12 min"),
    ("COC(=O)C1=CO[C@@H](O[C@@H]2O[C@H](CO)[C@@H](O)[C@H](O)[C@H]2O)[C@@H]2C(CO)=CC[C@H]12 [Geniposide]", "19.8 min"),
]

###

Test: Plasma pharmacokinetics after oral administration of YCHT in control (normal) rats, UHPLC-MS/MS
Assay type: in vivo, Sprague-Dawley rats
Conditions: Sprague-Dawley, rat, in vivo, po, 60 g/kg
Items are presented alongside their recorded Tmax.
RECORDED ENDPOINT: Tmax (min)

# COMPOUND, UNIT SPEC, RECORDED MEASUREMENT
records = [
    ("O=C(O)c1cc(O)c2c(c1)C(=O)c1cccc(O)c1C2=O [Rhein]", "min", 19.8),
    ("COc1cc2ccc(=O)oc2cc1O [Scopoletin]", "min", 11.4),
    ("COc1cc(O)c2c(c1)C(=O)c1cc(C)cc(O)c1C2=O [Physcion]", "min", 75),
    ("Cc1cc(O)c2c(c1)C(=O)c1cccc(O)c1C2=O [Chrysophanol]", "min", 37.8),
]

###

Assay: Plasma pharmacokinetics after oral administration of YCHT in control (normal) rats, UHPLC-MS/MS
Type: in vivo, Sprague-Dawley rats
Details: Sprague-Dawley, rat, in vivo, po, 60 g/kg

# MOLECULE, CL/F
rows = [
    ("O=C(O)c1cc(O)c2c(c1)C(=O)c1cccc(O)c1C2=O [Rhein]", "82 mL/min/kg"),
    ("Cc1cc(O)c2c(c1)C(=O)c1cccc(O)c1C2=O [Chrysophanol]", "363 mL/min/kg"),
    ("COc1cc(O)c2c(c1)C(=O)c1cc(C)cc(O)c1C2=O [Physcion]", "450 mL/min/kg"),
    ("COc1cc2ccc(=O)oc2cc1O [Scopoletin]", "1180 mL/min/kg"),
]
